Known melting point of a selection of compounds

// below: answered compounds
compound	assay.metric	observed.result
CN1CCC(c2cn(C3CCCC3)c3ccc(OS(=O)(=O)c4ccccc4)cc23)CC1.O=C(O)C(=O)O	melting point	202 to 205 °C
CN1CCC(c2cn(Cc3ccc(F)cc3)c3ccc(OS(=O)(=O)c4ccccc4)cc23)CC1.Cl	melting point	169 to 172 °C
CN1CCC(c2cn(C)c3ccc(OS(=O)(=O)c4ccccc4)cc23)CC1.O=C(O)C(=O)O	melting point	135 to 142 °C

Ask: Form field: reported melting point of CN1CCC(c2c[nH]c3ccc(OS(=O)(=O)c4ccc(I)cc4)cc23)CC1 [Example 36]
Result: 174 to 176 °C

Ask: Endpoint output: melting point of CN1CCC(c2c[nH]c3ccc(OS(=O)(=O)c4ccc([N+](=O)[O-])cc4)cc23)CC1 [Example 43] . Value?
Result: 171 to 172 °C

====

Listing of recorded melting point by entry.
Where a name gives a salt, the structure may show the parent alone.

compound	melting point
CCCCn1cc(C2CCN(C)CC2)c2cc(OS(=O)(=O)c3ccccc3)ccc21.O=C(O)C(=O)O	193 to 198 °C

Ask: Query: melting point; subject: `CN1CCC(c2cn(CCCc3ccccc3)c3ccc(OS(=O)(=O)c4ccccc4)cc23)CC1.O=C(O)C(=O)O`
Result: 188 to 191 °C

Ask: Suppose we examine the compound `CC(C)Cn1cc(C2CCN(C)CC2)c2cc(OS(=O)(=O)c3ccccc3)ccc21.Cl` ; what melting point value has been reported?
Result: 188 to 191 °C

Ask: Find the recorded melting point belonging to `CN1CC=C(c2c[nH]c3ccc(OS(=O)(=O)c4ccccc4)cc23)CC1` and report it.
Result: 186 to 190 °C

Ask: What value of melting point has been recorded for this entry: `CN1CCC(c2cn(Cc3ccc(F)cc3)c3ccc(OS(=O)(=O)c4c(F)cccc4F)cc23)CC1.Cl`
Result: 114 to 118 °C

Ask: Entry `CN1CCC(c2c3n(c4ccc(OS(=O)(=O)c5ccccc5)cc24)CCC3)CC1.Cl` has what melting point?
Result: 202 to 204 °C

Ask: Bench note: what melting point did `CN1CCC(c2cn(CCc3ccccc3)c3ccc(OS(=O)(=O)c4ccccc4)cc23)CC1.O=C(O)C(=O)O` show?
Result: 208 to 212 °C

Ask: So what's the measured melting point for this one? `CN1CCC(c2cn(Cc3ccccc3)c3ccc(OS(=O)(=O)c4c(F)cccc4F)cc23)CC1.O=C(O)C(=O)O`
Result: 205 to 208 °C

Ask: melting point lookup needed for `CN1CCC(c2cn(S(=O)(=O)c3cccc4ccccc34)c3ccc(OS(=O)(=O)c4ccccc4)cc23)CC1.O=C(O)C(=O)O` , thanks.
Result: 121 to 125 °C

Ask: Fill blank: measured melting point of the compound `CN1CCC(c2c[nH]c3ccc(OS(=O)(=O)c4ccc(F)c(F)c4F)cc23)CC1` is ____.
Result: 160 to 162 °C

Ask: Could you share which melting point value was measured for CCCn1cc(C2=CCN(C)CC2)c2cc(OS(=O)(=O)c3ccccc3)ccc21 (as salt: hydrochloride) ?
Result: 170 to 174 °C

Ask: Fill in the blank: the reported melting point of `CN1CCC(c2cn(S(=O)(=O)Cc3ccccc3)c3ccc(OS(=O)(=O)c4ccccc4)cc23)CC1.O=C(O)C(=O)O` is ____.
Result: 120 to 124 °C

Ask: Endpoint output: melting point of `CCCn1cc(C2CCN(C)CC2)c2cc(OS(=O)(=O)c3ccccc3)ccc21.Cl` . Value?
Result: 194 to 197 °C

Ask: So what's the measured melting point for this one? `Cc1cc(OS(=O)(=O)c2c(F)cccc2F)cc2c(C3CCN(C)CC3)cn(Cc3ccccc3)c12`
Result: 158 °C

Ask: Please look up its melting point: `CCCn1cc(C2CCN(C)CC2)c2cc(OS(=O)(=O)c3c(F)cccc3F)ccc21.O=C(O)C(=O)O`
Result: 185 to 189 °C

Ask: I would be grateful if you could share the reported melting point for `CN1CCC(c2cn(Cc3ccc(F)cc3F)c3ccc(OS(=O)(=O)c4ccccc4)cc23)CC1.O=C(O)C(=O)O` .
Result: 141 to 144 °C

Ask: What does the record list as melting point for `CCS(=O)(=O)n1cc(C2CCN(C)CC2)c2cc(OS(=O)(=O)c3ccccc3)ccc21.O=C(O)C(=O)O` ?
Result: 121 to 126 °C

These data points were gathered from patent US7230011B2.
